system: SARS-CoV-2 spike protein receptor binding domain (RBD), wild type (SARS-CoV-2, UniProt P0DTC2 319-539)
assay.text: ELISA, RBD protein coated on plate, antibody titrated
measured.property: EC50 (ng/mL)

| binder | measured.property | reported.result |
| --- | --- | --- |
| C517 (antibody, V domains shown) VH: EVQLVESGGGLVQPGGSLRLSCAASEFIVSRNYMSWVRQAPGKGLEWVSLIYSGGSTYYADSVKGRFTISRDNSKNTLYLQMNSLRAEDTAMYYCARDIAGRLDYWGQGTLVTVSS VL: DIQMTQSPSSLSASVGDRVTITCQASQDISKYLNWYQQKPGKAPKLLIYDASNLETGVPSRFSGSGSGTDFTFTISSLQPEDFATYYCQHYDSLSRLTFGGGTKVEIK | EC50 | 0.87 |
| C511 (antibody, V domains shown) VH: EVQLVESGGGLVQPGGSLRLSCAATEITVSSNYMTWVRQAPGKGLEWVSVIYPGGSTFYADSVKGRFSISRDNSKNTLYLQMNSLRAEDTAVYYCARDLVVYGLDCWGQGTLVTVSS VL: DIQLTQSPSFLSASVGDRVTITCRASQGISSYLAWYQQKPGKAPKLLIYAASTLQSGVPSRFSGSGSGTEFTLTISSLQPEDFATYYCQQLNTYPPPFGGGTKVEIK | EC50 | 1.33 |
| C531 (antibody, V domains shown) VH: EVQLVESGGGLVQPGRSLRLSCVATGFTFDDFAMHWVRQAPGKGLEWVSGISWNGGIIGYVDSVKGRFTISRDNAKNSLYLQMNSLRPEDTALYYCVKGYRYYYDILTGYYNDAGAFDYWGQGTLVTVSS VL: DIQSTQSPSFLSASVGDRVAITCRASQGISSYLAWYQQKPGKAPKLLIYPASTLQSGVPSGFSGSGSGTEFTLTISSLQPEDFATYYCQQLNDYPFTFGPGTKVDIK | EC50 | 6.84 |

Hello, the source for this data is patent US20220195015A1, in case you need it.
